Each entry below carries its reported IC50.
- Study system: recombinant SARS-CoV-2 M^pro (Severe acute respiratory syndrome coronavirus 2 (2019-nCoV) (SARS-CoV-2))
- Protocol summary: Inhibition of SARS-CoV-2 M^pro enzyme activity (fluorescent substrate assay)
- Assay type: biochemical
- Condition set: inhibition of SARS-CoV-2 M^pro enzyme activity; values in nM; read-out: IC50

| Molecule smiles | Units symbol | IC50 |
| --- | --- | --- |
| O=C(NCc1ccccn1)C(=O)[C@@H](Cc1ccccc1)NC(=O)[C@H]1CCCCN1C(=O)C1CCC(F)(F)CC1 | nM | 13.4 |
| O=C(Cc1noc(C2CCC(F)(F)CC2)n1)N[C@H](Cc1ccccc1)C(=O)C(=O)NCc1nccs1 | nM | 69 |
| C[C@@H](NC(=O)C1CCC(F)(F)CC1)C(=O)N[C@H](Cc1ccccc1)C(=O)C(=O)NCc1cocn1 | nM | 42 |
| C[C@@H](OCc1ccccc1)C(=O)N[C@H](Cc1ccccc1)C(=O)C(=O)NCc1ccc(Cl)cn1 | nM | 30.9 |
